- Tested on: biotinyl-Leu-oxazolone
- Procedure text: self-aminoacylation, catalytic enhancement (BLO) (fold over background); higher = more active; k-Seq, kA / k0A0; sequences stand for … in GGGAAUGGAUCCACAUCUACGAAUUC…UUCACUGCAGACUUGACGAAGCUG
This sample holds only a part of the variants without activity.
Parameter: self-aminoacylation

# example entries with known answers
| Sequence content | self-aminoacylation |
| --- | --- |
| UUUCGCCUAGGUCAUCGGGUG [Fam2.2 aminoacylation ribozyme variant] | 7.49 |
| CCACACUUCAAUCAAUCGGUG [Fam1B.1 aminoacylation ribozyme variant] | 3.6 |
| GUUACCCUGGUCACCGAGUGA [Fam2.1 aminoacylation ribozyme variant] | 13.1 |
| AUGCACCUAGGUCAUCGGGCG [Fam2.2 aminoacylation ribozyme variant] | 3.22 |
| CUACCUCAAACAAACGGUCUG [Fam1A.1 aminoacylation ribozyme variant] | 1.08 |

Items follow; give self-aminoacylation for each.
1. AUUACCGUGGGCAUCGAGUGA [Fam2.1 aminoacylation ribozyme variant]
2. CCAUACUUCAAGCAAUCGAUC [Fam1B.1 aminoacylation ribozyme variant]
3. CCACACUAAAAGCAAUCGGUC [Fam1B.1 aminoacylation ribozyme variant]
4. AUUCACCAAGGUAAUCGGGUG [Fam2.2 aminoacylation ribozyme variant]

result:
[6.2, 0.489, 0.677, 7.71]

---

- System: biotinyl-Ile-oxazolone
- Procedure text: self-aminoacylation, catalytic enhancement (BIO) (fold over background); higher = more active; k-Seq, kA / k0A0; sequences stand for … in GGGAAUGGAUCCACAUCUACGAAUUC…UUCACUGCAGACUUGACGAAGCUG
Fewer inactive variants are shown than the library holds.
Would you kindly list self-aminoacylation for each of these sequences?
One number for each entry.

// for each sequence below, give its self-aminoacylation
1. AAGAUAGCUAAUAGUCGCAAG [Fam3.1 aminoacylation ribozyme variant]
2. CCACACUUCAAUCAAUCGGUG [Fam1B.1 aminoacylation ribozyme variant]
3. CAUCACCUAGGUCAUCGGGUG [Fam2.2 aminoacylation ribozyme variant]

result:
1. 1.63
2. 2.23
3. 3.15

Provide each entry's self-aminoacylation from the list below.
1. AUUCACCUAGGUCCACGGGUG [Fam2.2 aminoacylation ribozyme variant]
2. AAGUUUGCUCAUAGUUGCAAG [Fam3.1 aminoacylation ribozyme variant]
3. CUACCUCAAACAAUCGGUCGG [Fam1A.1 aminoacylation ribozyme variant]

result:
1: 3.85; 2: 0.916; 3: 1.28

Count: 7. Required value per item: self-aminoacylation.
1. CAACACUACAAGCAAUCGGUC [Fam1B.1 aminoacylation ribozyme variant]
2. AGUACCUUGGUCAUCGAGUGA [Fam2.1 aminoacylation ribozyme variant]
3. CUACUUCUAACAAUCGGACUG [Fam1A.1 aminoacylation ribozyme variant]
4. CUUACCCUAGUCAUCGAGUGA [Fam2.1 aminoacylation ribozyme variant]
5. AAGUUCGCUAAUAGUCACAAG [Fam3.1 aminoacylation ribozyme variant]
6. CUACAUCAAACAAUCGGUCUA [Fam1A.1 aminoacylation ribozyme variant]
7. AUUACCCUCGCCAUCGAGUGA [Fam2.1 aminoacylation ribozyme variant]

result:
1: 0.955; 2: 4.3; 3: 0.566; 4: 2.99; 5: 1.59; 6: 0.669; 7: 3.71

Value sought for every listed sequence: self-aminoacylation.
1. AAGUUUGCUAAUAGUCGCAUG [Fam3.1 aminoacylation ribozyme variant]
2. CUUCACCUAGGUCAUCGGGUA [Fam2.2 aminoacylation ribozyme variant]
3. AAGUUUGCAAAUAGUCGCAAG [Fam3.1 aminoacylation ribozyme variant]
4. CUACUUCGUACAAUCGGUCUG [Fam1A.1 aminoacylation ribozyme variant]
5. ACUGACCUAGGUCAUCGGGUG [Fam2.2 aminoacylation ribozyme variant]

result:
1. 1.03
2. 4.43
3. 0.763
4. 0.571
5. 4.97

Working through the 5 sequences below one at a time, give self-aminoacylation for each.
1. AUUGAUCUAGGUCAUCGGGUG [Fam2.2 aminoacylation ribozyme variant]
2. AAGUUUGCUAAGAGUCGCAAU [Fam3.1 aminoacylation ribozyme variant]
3. AUUACCUUGGUCACCGAGUGA [Fam2.1 aminoacylation ribozyme variant]
4. UCACACUUCAAGCACUCGGUC [Fam1B.1 aminoacylation ribozyme variant]
5. AACUUUGCUAAUAGUCCCAAG [Fam3.1 aminoacylation ribozyme variant]

result:
[4.45, 1.42, 2.87, 0.94, 1.92]

Kindly give each listed record's self-aminoacylation.
1. AUUAAGCUGGUCAUCGAGUGA [Fam2.1 aminoacylation ribozyme variant]
2. AUUACCCUGGUCUUCGACUGA [Fam2.1 aminoacylation ribozyme variant]

result:
2.77
0.992

Please state, for each entry, its recorded self-aminoacylation.
1. AUUCACCAAGGUCAUCGGGUG [Fam2.2 aminoacylation ribozyme variant]
2. AAGCUUGCUAAUAGUCGAAAG [Fam3.1 aminoacylation ribozyme variant]
3. AUUACGCUGGUCAUCGACUGA [Fam2.1 aminoacylation ribozyme variant]
4. CUACUUCAAACAAUCGGCUUG [Fam1A.1 aminoacylation ribozyme variant]
5. CCACACGCCAAGCAAUCGGUC [Fam1B.1 aminoacylation ribozyme variant]
6. CUACUUCAAAUAAUCAGUCUG [Fam1A.1 aminoacylation ribozyme variant]
7. AAGUUUGCUAAUAGUCGUAAU [Fam3.1 aminoacylation ribozyme variant]
8. CAACUUCAAACAAUCGGCCUG [Fam1A.1 aminoacylation ribozyme variant]

result:
1: 5.52; 2: 1.58; 3: 1.48; 4: 1.27; 5: 0.961; 6: 0.956; 7: 1.19; 8: 3.08

I would be grateful if you could provide self-aminoacylation for each of the following entries.
1. AUUCCCCAGGUCAUCGAGUGA [Fam2.1 aminoacylation ribozyme variant]
2. AAGUUUGCUGAUAGCCGCAAG [Fam3.1 aminoacylation ribozyme variant]

result:
1: 3.12; 2: 0.846

---

Kindly state self-aminoacylation for each of the entries shown.
- System: biotinyl-Leu-oxazolone
- Procedure text: self-aminoacylation, catalytic enhancement (BLO) (fold over background); higher = more active; k-Seq, kA / k0A0; sequences stand for … in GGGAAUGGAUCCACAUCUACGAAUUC…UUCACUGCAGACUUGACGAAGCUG
Variants at the floor of the assay were thinned out.
Numbers only.

// known answers, use as guide
| Sequence content | self-aminoacylation |
| --- | --- |
| ACUCACCUUGGUCAUCGGGUG [Fam2.2 aminoacylation ribozyme variant] | 7.85 |
| AAGUCUGCUAGUAGUCGCAAG [Fam3.1 aminoacylation ribozyme variant] | 1.44 |
| AUUAUCGUGGUCAUCGAGUGA [Fam2.1 aminoacylation ribozyme variant] | 4.54 |
| AUUACCGUGGUCAUCGGGUGA [Fam2.1 aminoacylation ribozyme variant] | 11.9 |
| AUUCACCUAGAGCAUCGGGUG [Fam2.2 aminoacylation ribozyme variant] | 2.43 |

Would you mind listing self-aminoacylation for each of the following sequences?
1. CCACACUACAAGCAAUCUGUC [Fam1B.1 aminoacylation ribozyme variant]
2. AUUCACCUAAGUCAUCGGUUG [Fam2.2 aminoacylation ribozyme variant]
3. CAUCACCUAGGUCAUCGGGUG [Fam2.2 aminoacylation ribozyme variant]

result:
1. 0.49
2. 1.23
3. 6.23

query: Any idea what its self-aminoacylation is? The sequence is AAGUAUGCUAAUAGUCGCGAG [Fam3.1 aminoacylation ribozyme variant]
result: 2.21

---

- Tested on: biotinyl-Leu-oxazolone
- Procedure text: self-aminoacylation, catalytic enhancement (BLO) (fold over background); higher = more active; k-Seq, kA / k0A0; sequences stand for … in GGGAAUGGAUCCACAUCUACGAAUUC…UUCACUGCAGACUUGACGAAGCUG
Variants at the floor of the assay were thinned out.
Record form. Attribute: self-aminoacylation. Fill in for each entry.
One number for each entry.

| Sequence content | Parameter | Endpoint result |
| --- | --- | --- |
| CCACACUUCACGCAAUUGGUC [Fam1B.1 aminoacylation ribozyme variant] | self-aminoacylation | 0.957 |

Quick batch: self-aminoacylation for everything below.
1. AUUACCCUGGUCAUCUGGUGA [Fam2.1 aminoacylation ribozyme variant]
2. ACACACUUCAAGCAAACGGUC [Fam1B.1 aminoacylation ribozyme variant]
3. AGUACCCUGGUCAUAGAGUGA [Fam2.1 aminoacylation ribozyme variant]
4. CCACUCUUCAAGCAAUCGGUU [Fam1B.1 aminoacylation ribozyme variant]
5. GUUAUCCUGGUCAUCGAGUGA [Fam2.1 aminoacylation ribozyme variant]
6. CUACUUCAAACUAUGGGUCUG [Fam1A.1 aminoacylation ribozyme variant]
7. AUUAACCUGGUCAUCGAGUGU [Fam2.1 aminoacylation ribozyme variant]

result:
1. 5.37
2. 0.941
3. 4.1
4. 1.16
5. 9.81
6. 0.922
7. 4.39
